- Tested on: SK-MEL-5 melanoma
- test_method_notes: NCI tumour cell line growth inhibition, 48 h

{"columns": ["compound", "system_under_test", "TGI"],
 "data": [
  ["C=C(C)[C@@H]1CC[C@]2(C(=O)N[C@H](CO)Cc3ccccc3)CC[C@]3(C)[C@H](CC[C@@H]4[C@@]5(C)CCCNC(C)(C)[C@@H]5CC[C@]43C)[C@@H]12", "SK-MEL-5 melanoma", "3.07 µM"],
  ["CC1=C(C(=O)Nc2ccc3n[nH]c(C)c3c2)C(c2ccc(C(F)(F)F)cc2)CC(=O)N1 (stereo not given)", "SK-MEL-5 melanoma", "> 25 µM"],
  ["CC(=O)Nc1ccc(S(=O)(=O)N/N=C/CN2C(=O)c3ccccc3C2=O)cc1", "SK-MEL-5 melanoma", "> 100 µM"],
  ["C[n+]1cccc2c(=O)c3ccccc3oc21", "SK-MEL-5 melanoma", "> 100 µM"],
  ["O=c1cc(N2CCCC2)[nH]c(=O)n1Cc1ccccc1", "SK-MEL-5 melanoma", "> 100 µM"]
]}

Origin of the recorded values: PubChem BioAssay (NCI)
